system: biotinyl-Met-oxazolone; experiment: self-aminoacylation, catalytic enhancement (BMO) (fold over background); higher = more active; k-Seq, kA / k0A0; sequences stand for … in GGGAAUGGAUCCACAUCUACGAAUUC…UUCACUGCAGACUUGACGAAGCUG
Fewer inactive variants are shown than the library holds.
Please use the following self-aminoacylation ranges when assigning a class: Low (below 2), Medium (2 to below 6), High (6 or more)

Lookup: Textbook exercise: identify the category of the sequence given here, AUUACCGUGGUCAUAGAGUGA [Fam2.1 aminoacylation ribozyme variant] , according to its measured value.
Found: High

Lookup: Textbook exercise: identify the category of the sequence given here, AUUCACAUAGGUCAUCGGGCG [Fam2.2 aminoacylation ribozyme variant] , according to its measured value.
Found: Medium

Lookup: Textbook exercise: identify the category of the sequence given here, AUUUACCUAGUUCAUCGGGUG [Fam2.2 aminoacylation ribozyme variant] , according to its measured value.
Found: Medium

Lookup: Textbook exercise: identify the category of the sequence given here, CCACACUACAAGCAAUCGCUC [Fam1B.1 aminoacylation ribozyme variant] , according to its measured value.
Found: Low

Lookup: Textbook exercise: identify the category of the sequence given here, AAGUUUGCUGAUAGGCGCAAG [Fam3.1 aminoacylation ribozyme variant] , according to its measured value.
Found: Low

Lookup: Textbook exercise: identify the category of the sequence given here, AUUACCUUGUUCAUCGAGUGA [Fam2.1 aminoacylation ribozyme variant] , according to its measured value.
Found: High

Lookup: Textbook exercise: identify the category of the sequence given here, AUUACCUUGGUGAUCGAGUGA [Fam2.1 aminoacylation ribozyme variant] , according to its measured value.
Found: Medium

Lookup: Textbook exercise: identify the category of the sequence given here, AUUACCCAAGUCAUCGAGUGA [Fam2.1 aminoacylation ribozyme variant] , according to its measured value.
Found: High

Lookup: Textbook exercise: identify the category of the sequence given here, CCACACCUUAAGCAAUCGGUC [Fam1B.1 aminoacylation ribozyme variant] , according to its measured value.
Found: Low

Lookup: Textbook exercise: identify the category of the sequence given here, AAGGUGGCUAAUAGUCGCAAG [Fam3.1 aminoacylation ribozyme variant] , according to its measured value.
Found: Low

Lookup: Textbook exercise: identify the category of the sequence given here, CUUACCCUGGUCAUCGAGUGG [Fam2.1 aminoacylation ribozyme variant] , according to its measured value.
Found: High

Lookup: Textbook exercise: identify the category of the sequence given here, AUUACCCUGGUCUUCGGGUGA [Fam2.1 aminoacylation ribozyme variant] , according to its measured value.
Found: High

Lookup: Textbook exercise: identify the category of the sequence given here, CCACACUUCAAGCAUUCGGAC [Fam1B.1 aminoacylation ribozyme variant] , according to its measured value.
Found: Low

Lookup: Textbook exercise: identify the category of the sequence given here, AUGUAUGCUAAUAGUCGCAAG [Fam3.1 aminoacylation ribozyme variant] , according to its measured value.
Found: Low

Lookup: Textbook exercise: identify the category of the sequence given here, CUACGUCAAACAAUCCGUCUG [Fam1A.1 aminoacylation ribozyme variant] , according to its measured value.
Found: Low

Lookup: Textbook exercise: identify the category of the sequence given here, AUUCACCUGGGUAAUCGGGUG [Fam2.2 aminoacylation ribozyme variant] , according to its measured value.
Found: Medium
